- MEASUREMENT PROTOCOL: Half life in fasted Cynomolgus monkey administered orally by LC-MS/MS analysis
- Assay type: ADME, Macaca fascicularis
- CONDITION NOTES: in vivo, route po
MEASURE NAME: half-life
A bare number is not enough; add the unit after it.

Consider CC(C)C(=O)OCn1c(=O)ccn([C@@H]2O[C@](F)(COC(=O)C(C)C)[C@@H](O)[C@H]2O)c1=O . Its measured half-life is 6.84 h

---

- MEASUREMENT PROTOCOL: Aqueous solubility of compound
- Format: physicochemical
- CONDITION NOTES: aqueous medium
MEASURE NAME: solubility
A bare number is not enough; add the unit after it.

[[record]]
molecular_string = "CC(=O)OC[C@@]1(F)O[C@@H](n2ccc(=O)n(COC(=O)c3cccnc3)c2=O)[C@H](OC(C)=O)[C@@H]1OC(C)=O"
result = "700 µg/mL"

[[record]]
molecular_string = "CC(=O)O[C@H]1[C@H](n2ccc(=O)n(COC(=O)c3cccnc3)c2=O)O[C@](F)(COC(=O)C(C)C)[C@H]1OC(C)=O"
result = "410 µg/mL"


Here is the next item to consider.
Consider CC(C)C(=O)OC[C@@]1(F)O[C@@H](n2ccc(=O)n(COC(=O)c3cccnc3)c2=O)[C@H](OC(=O)C(C)C)[C@@H]1OC(=O)C(C)C . Its measured solubility is 10 µg/mL

---

- MEASUREMENT PROTOCOL: Cmax in fasted Sprague-Dawley rat at 5 mg/kg, iv by LC-MS/MS analysis
- Type: ADME, organism-based
- CONDITION NOTES: in vivo
MEASURE NAME: Cmax (ng/mL)
Reply with just the number (in ng/mL).

Consider O=c1ccn([C@@H]2O[C@](F)(CO)[C@@H](O)[C@H]2O)c(=O)[nH]1 . Its measured Cmax is 2900

---

- MEASUREMENT PROTOCOL: Stability of compound at pH 4.0 assessed as change in purity at 1 mg/ml incubated for 24 hrs by HPLC analysis
- Assay type: physicochemical
- CONDITION NOTES: buffer, pH 4, 24 h
MEASURE NAME: Activity (%)
Reply with just the number (in %).

[[record]]
molecular_string = "CC(C)C(=O)OC[C@@]1(F)O[C@@H](n2ccc(=O)n(COC(=O)[C@@H](N)C(C)C)c2=O)[C@H](OC(=O)C(C)C)[C@@H]1OC(=O)C(C)C.Cl"
measurement_unit = "%"
numeric_readout = -2.1

[[record]]
molecular_string = "CC(=O)OC[C@@]1(F)O[C@@H](n2ccc(=O)n(COC(=O)c3cccnc3)c2=O)[C@H](OC(C)=O)[C@@H]1OC(C)=O"
measurement_unit = "%"
numeric_readout = -0.1

[[record]]
molecular_string = "CC(C)C(=O)OC[C@@]1(F)O[C@@H](n2ccc(=O)n(COC(=O)c3cccnc3)c2=O)[C@H](OC(=O)C(C)C)[C@@H]1OC(=O)C(C)C"
measurement_unit = "%"
numeric_readout = -0.1


Consider CC(C)C(=O)OC[C@@]1(F)O[C@@H](n2ccc(=O)n(COC(=O)[C@@H]3CCCN3)c2=O)[C@H](OC(=O)C(C)C)[C@@H]1OC(=O)C(C)C.Cl . Its measured Activity is -84.8

Consider CC(C)C(=O)OCn1c(=O)ccn([C@@H]2O[C@](F)(COC(=O)C(C)C)[C@@H](O)[C@H]2O)c1=O . Its measured Activity is -3

Consider CC(C)C(=O)OC[C@@]1(F)O[C@@H](n2ccc(=O)n(COC(=O)[C@@H]3CCCN3C)c2=O)[C@H](OC(=O)C(C)C)[C@@H]1OC(=O)C(C)C.Cl . Its measured Activity is -52.7

Consider CC(C)C(=O)OCn1c(=O)ccn([C@@H]2O[C@](F)(COC(=O)C(C)C)[C@@H](OC(=O)C(C)C)[C@H]2OC(=O)C(C)C)c1=O . Its measured Activity is 0
